Please provide measured half-life at 5 μM for the entries that follow.
- test_name: Metabolic stability in human liver microsomes
- Type: in vitro ADME
- conditions: human liver microsomes 1 mg protein/mL, 5 μM compound, NADPH-regenerating system, pH 7.4, 37 °C; mean±SD; read-out: t 1/2 Human LM
Give bare numbers, in min.

> print(dat)
                                   compound    recorded.metric  numeric.readout
1  CC(=O)NCCN(c1ccc(F)cc1)c1cccc(C(F)F)c1 [Compound 10]  half-life at 5 μM             55.4
2  COc1cccc(N(CCNC(C)=O)c2ccsc2)c1 [Compound 11]  half-life at 5 μM             40.1
3  CC(=O)NCCN(c1ccc(F)cc1)c1cccc(Br)c1 [Compound 3, reference compound]  half-life at 5 μM             71.2
4  CCNC(=O)NCCN(c1ccccc1)c1cccc(OC)c1 [Compound 6 b]  half-life at 5 μM             15.4

Look up half-life at 5 μM for the entries below, preserving their order.
1. COc1cccc(N(CCNC(C)=O)CCc2ccccc2)c1 [Compound 12]
2. COc1cccc(N(CCNC(C)=O)c2cccc(CO)c2)c1 [Compound 14]
3. COc1ccc(Br)c(N(C)CCNC(C)=O)c1 [Compound 19]
4. COc1ccc(-c2ccccc2)c(N(C)CCNC(C)=O)c1 [Compound 18]
5. COc1cccc(N(CCNC(C)=O)c2ccccc2)c1 [Compound 2, reference compound]
6. CCCNC(=O)NCCN(c1ccccc1)c1cccc(OC)c1 [Compound 6 c]

[7.2, 64.9, 78.5, 11.2, 40.8, 7.4]

Look up half-life at 5 μM for the entries below, preserving their order.
1. COc1cccc(N(CCNC(N)=O)c2ccccc2)c1 [Compound 6 a]
2. COc1cccc(N(CCNC(C)=O)c2cccc(O)c2)c1 [Compound 15]

77.5
66.2

====

- test_name: In vivo pharmacokinetic study in rat plasma
- Design: species or system Sprague‐Dawley rats
- conditions: male, Sprague-Dawley CD; rat plasma, IV bolus 5 mg kg^−1
- Protocol: To evaluate the in vivo behavior of the two melatonergic ligands 14 and 19, a preliminary pharmacokinetic (PK) study was carried out in male Sprague‐Dawley rats. The compounds were administered as intravenous bolus (IV) or by oral gavage (PO) at doses of 5 or 40 mg kg^−1, respectively. Quantitative analysis was carried out by UPLC/MS/MS and the plasma concentration profiles are shown in Figure 3, while the main PK parameters are listed in Table 4. […]
recorded_metric: Cmax
Please format your answer as a value with the unit trailing.

// returns reported Cmax for input `COc1ccc(Br)c(N(C)CCNC(C)=O)c1`
2970 ng/mL

====

- test_name: In vivo pharmacokinetic study in rat plasma
- Design: species or system Sprague‐Dawley rats
- conditions: male, Sprague-Dawley CD; rat plasma, PO gavage 40 mg kg^−1
recorded_metric: AUC
Please format your answer as a value with the unit trailing.

// returns reported AUC for input COc1ccc(Br)c(N(C)CCNC(C)=O)c1 [Compound 19]
319 ng·h/mL

====

- test_name: Metabolic stability in rat liver microsomes
- Format: in vitro ADME
- conditions: rat liver microsomes 1 mg protein/mL, 5 μM compound, NADPH-regenerating system, pH 7.4, 37 °C; mean±SD; read-out: t 1/2 Rat LM
Decision: half-life at 5 μM beneath 3 min gives yes; half-life at 5 μM meeting or exceeding 3 min gives no.

Field: example entries. Status: answers known.
> print(dat)
                                   compound  assigned.class
1        CCNC(=O)NCCN(c1ccccc1)c1cccc(OC)c1              no
2             COc1ccc(Br)c(N(C)CCNC(C)=O)c1              no
3       COc1cccc(N(CCNC(C)=O)c2cccc(O)c2)c1              no
4        COc1cccc(N(CCNC(C)=O)CCc2ccccc2)c1             yes
5  CC(=O)NCCN(c1ccc(F)cc1)c1cccc(Br)c1 [Compound 3, reference compound]              no

Please state whether half-life at 5 μM is below 3 min for `CCCNC(=O)NCCN(c1ccccc1)c1cccc(OC)c1`
no

Please give the result for `COc1cccc(N(CCNC(C)=O)c2cccc(CO)c2)c1` too.
yes

====

- test_name: In vivo pharmacokinetic study in rat plasma
- Parameters: species or system Sprague‐Dawley rats
- conditions: male, Sprague-Dawley, plasma; rat, IV bolus 5 mg kg^−1; read-out: V ss
recorded_metric: Vd (L/kg)
Give bare numbers, in L/kg.

// returns reported Vd for input `COc1cccc(N(CCNC(C)=O)c2cccc(CO)c2)c1`
0.9

====

- test_name: In vivo pharmacokinetic study in rat plasma
- Design: species or system Sprague‐Dawley rats
- conditions: male, Sprague-Dawley CD; rat plasma, IV bolus 5 mg kg^−1
recorded_metric: AUC
Please format your answer as a value with the unit trailing.

// returns reported AUC for input COc1ccc(Br)c(N(C)CCNC(C)=O)c1 [Compound 19]
1100 ng·h/mL

====

- test_name: In vivo pharmacokinetic study in rat plasma
- Set-up: species or system Sprague‐Dawley rats
- conditions: male, Sprague-Dawley CD, plasma; rat, IV bolus 5 mg kg^−1; read-out: V ss
recorded_metric: Vd
Please format your answer as a value with the unit trailing.

// returns reported Vd for input `COc1ccc(Br)c(N(C)CCNC(C)=O)c1`
0.7 L/kg

====

- test_name: In vivo pharmacokinetic study in rat plasma
- Parameters: species or system Sprague‐Dawley rats
- conditions: male, Sprague-Dawley CD; rat plasma, PO gavage 40 mg kg^−1
recorded_metric: half-life (min)
Numbers only, in min.

// returns reported half-life for input `COc1ccc(Br)c(N(C)CCNC(C)=O)c1`
26.2

====

- test_name: In vivo pharmacokinetic study in rat plasma
- Parameters: species or system Sprague‐Dawley rats
- conditions: male, Sprague-Dawley; rat plasma, IV bolus 5 mg kg^−1
recorded_metric: Cmax (ng/mL)
Give bare numbers, in ng/mL.

// returns reported Cmax for input COc1cccc(N(CCNC(C)=O)c2cccc(CO)c2)c1 [Compound 14]
2760

====

Please provide measured log10(solubility) for the entries that follow.
- test_name: Thermodynamic solubility, shake flask method
- Type: physicochemical
- conditions: buffer pH 7.4, aqueous buffer, thermodynamic from solid, pH 7.4 buffer, room temperature overnight, mean±SD, triplicate, read-out: Solubility pH 7.4
Hey, these are logged values: log10 of solubility, mg/mL being the unit before logging.

Completed entries (count: 2):
> print(dat)
                                   molecule    recorded.metric  numeric.readout
1  CCNC(=O)NCCN(c1ccccc1)c1cccc(OC)c1 [Compound 6 b]  log10(solubility)            -1.99
2  CC(=O)NCCN(c1ccc(F)cc1)c1cccc(C(F)F)c1 [Compound 10]  log10(solubility)            -1.39

Look up log10(solubility) for the entries below, preserving their order.
1. CC(=O)NCCN(c1ccc(F)cc1)c1cccc(Br)c1 [Compound 3, reference compound]
2. COc1cccc(N(CCNC(C)=O)c2ccccc2)c1 [Compound 2, reference compound]
3. COc1cccc(N(CCNC(N)=O)c2ccccc2)c1 [Compound 6 a]
4. COc1ccc(Br)c(N(C)CCNC(C)=O)c1 [Compound 19]

[-2.29, -0.98, -0.51, -0.08]

Look up log10(solubility) for the entries below, preserving their order.
1. COc1cccc(N(CCNC(C)=O)c2cccc(O)c2)c1 [Compound 15]
2. COc1ccc(-c2ccccc2)c(N(C)CCNC(C)=O)c1 [Compound 18]
3. COc1cccc(N(CCNC(C)=O)c2ccsc2)c1 [Compound 11]

1. -0.92
2. -0.47
3. -1.03

====

Please provide measured pKi for the entries that follow.
- test_target: human MT2 receptors (Homo sapiens, UniProt P49286)
- Sequence (P49286 1-362): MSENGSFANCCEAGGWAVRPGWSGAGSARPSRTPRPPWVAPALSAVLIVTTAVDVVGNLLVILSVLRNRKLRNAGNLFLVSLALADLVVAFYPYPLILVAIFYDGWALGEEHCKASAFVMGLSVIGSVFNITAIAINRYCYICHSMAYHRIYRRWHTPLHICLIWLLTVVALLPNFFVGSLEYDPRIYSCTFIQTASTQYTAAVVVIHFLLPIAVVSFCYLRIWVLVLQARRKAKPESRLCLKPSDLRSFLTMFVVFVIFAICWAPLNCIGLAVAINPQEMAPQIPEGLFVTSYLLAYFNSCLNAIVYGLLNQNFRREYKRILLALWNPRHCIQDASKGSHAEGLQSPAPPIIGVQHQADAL
- test_name: Radioligand binding, 2-[125I]iodomelatonin competition at MT2
- conditions: cloned human MT2 in CHO cells; from IC50 by Cheng-Prusoff; mean±SD of three determinations; read-out: MT2 K i
Numbers only, as −log10 of the molar value.

Completed entries (count: 3):
> print(dat)
                                   molecule  numeric.readout
1  CC(=O)NCCN(c1ccc(F)cc1)c1cccc(Br)c1 [Compound 3, reference compound]             8.85
2       COc1cccc(N(CCNC(C)=O)c2cccc(O)c2)c1             8.85
3             COc1ccc(Br)c(N(C)CCNC(C)=O)c1             8.62

Look up pKi for the entries below, preserving their order.
1. COc1cccc(N(CCNC(N)=O)c2ccccc2)c1
2. COc1cccc(N(CCNC(C)=O)c2ccsc2)c1
3. COc1ccc(-c2ccccc2)c(N(C)CCNC(C)=O)c1
4. COc1cccc(N(CCNC(C)=O)c2ccccc2)c1 [Compound 2, reference compound]

8.00
10.15
8.77
9.54

Look up pKi for the entries below, preserving their order.
1. CC(=O)NCCN(c1ccc(F)cc1)c1cccc(C(F)F)c1
2. COc1cccc(N(CCNC(C)=O)c2cccc(CO)c2)c1
3. CCNC(=O)NCCN(c1ccccc1)c1cccc(OC)c1
4. CCCNC(=O)NCCN(c1ccccc1)c1cccc(OC)c1
5. COc1cccc(N(CCNC(C)=O)CCc2ccccc2)c1

[7.46, 8.46, 9.19, 8.77, 8.68]

All values here come from paper PMC8518537.
